Test: Clearance in dog at 0.5 mg/kg, iv
Type: ADME, organism-based, Canis lupus familiaris
Design: dose 0.5 mg/kg, route intravenous
Conditions: in vivo
RESULT_TYPE: clearance (mL/min/kg)
Answers are plain numbers, in mL/min/kg.

Prompt line: Which clearance reading was recorded for the molecule CS(=O)(=O)C1CCN(c2cccc3c2ccn3-c2ccnc(N[C@H]3CC[C@H](O)CC3)n2)CC1 ?
Response line: 10.6

====

Test: Oral bioavailability in dog at 2 mg/kg
Assay type: ADME, organism-based, Canis lupus familiaris
Conditions: in vivo
RESULT_TYPE: bioavailability (%)
Numbers only, in %.

Prompt line: Which bioavailability reading was recorded for the molecule CS(=O)(=O)C1CCN(c2cccc3c2ccn3-c2ccnc(N[C@H]3CC[C@H](O)CC3)n2)CC1 ?
Response line: 15
